# pIC50 per entry
System: NCI-H211 complex spheroid viability
testMethodNotes: Anticancer human tumor NCI-H211 cell line growth inhibition [LSD1];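 also: luminescent viability read after seven days of drug exposure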
conditionsUsed: curve of first compound; second compound 1 µM
pIC50: −log10 of the molar value.
attributeMeasured: pIC50

molecule="O=C(c1cc(Cc2n[nH]c(=O)c3ccccc23)ccc1F)N1CCN(C(=O)C2CC2)CC1 + NC1CCC(NC2CC2c2ccccc2)CC1" attributemeasured=pIC50 result="> 7.50"
molecule="Nc1ccn(C2OC(CO)C(O)C2(F)F)c(=O)n1 (centres undefined) + NC1CC1c1ccc(-c2cccc(O)c2)cc1" attributemeasured=pIC50 result="> 9.02"
molecule="O=C(C=Cn1cnc(-c2cc(C(F)(F)F)cc(C(F)(F)F)c2)n1)NNc1cnccn1 + NC1CCC(NC2CC2c2ccccc2)CC1" attributemeasured=pIC50 result="> 8.50"
molecule="O=C(c1cc(Cc2n[nH]c(=O)c3ccccc23)ccc1F)N1CCN(C(=O)C2CC2)CC1 + NC1CC1c1ccc(-c2cccc(O)c2)cc1" attributemeasured=pIC50 result="> 7.50"
